Reference for the values: ChEMBL document CHEMBL1141595

biological target: Sodium-dependent dopamine transporter (Homo sapiens); assay: Inhibition of [3H]dopamine uptake at human dopamine transporter expressed in HEK293 cells
Sequence (Q01959 whole entry): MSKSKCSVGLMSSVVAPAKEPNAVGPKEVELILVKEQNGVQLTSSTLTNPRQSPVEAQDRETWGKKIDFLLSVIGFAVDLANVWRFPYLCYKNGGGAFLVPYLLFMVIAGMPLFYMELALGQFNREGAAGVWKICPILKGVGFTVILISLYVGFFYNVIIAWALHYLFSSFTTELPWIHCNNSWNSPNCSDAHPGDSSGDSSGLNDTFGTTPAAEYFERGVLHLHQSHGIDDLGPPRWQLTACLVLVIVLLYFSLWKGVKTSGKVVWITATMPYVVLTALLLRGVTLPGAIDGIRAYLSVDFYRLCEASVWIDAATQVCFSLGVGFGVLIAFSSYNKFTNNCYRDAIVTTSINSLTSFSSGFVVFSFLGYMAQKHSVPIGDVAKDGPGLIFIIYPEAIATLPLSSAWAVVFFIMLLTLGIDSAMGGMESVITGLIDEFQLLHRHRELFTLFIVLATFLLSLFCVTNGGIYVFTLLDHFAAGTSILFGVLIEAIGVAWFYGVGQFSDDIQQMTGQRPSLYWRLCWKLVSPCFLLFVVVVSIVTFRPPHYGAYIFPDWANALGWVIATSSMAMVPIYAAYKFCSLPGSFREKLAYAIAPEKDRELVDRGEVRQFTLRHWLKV
I'd appreciate it if you could supply pIC50 values for the items below.
Note: pIC50 values are expressed as the negative base-10 logarithm of concentration in M.

Challenge: Name the recorded pIC50 for CNCc1cc(C(=O)NC)ccc1Oc1ccc(Cl)cc1OC .
Response given: 4.80

Challenge: May I ask what pIC50 has been recorded for CN(C)Cc1ccccc1Oc1cccc(Cl)c1 ?
Response given: 6.71

Challenge: Name the reported pIC50 value associated with the compound CN(C)Cc1ccccc1Oc1ccccc1Cl
Response given: 5.56

Challenge: Which pIC50 value is on record for CNCc1cc(C(N)=O)ccc1Oc1ccc(Cl)cc1C ?
Response given: 5.55

Challenge: Would you kindly share the measured pIC50 for CNCc1cc(C(=O)NC)ccc1Oc1ccc(Cl)cc1C ?
Response given: 6.41

Challenge: Reported pIC50, compound CN(C)Cc1ccccc1Oc1ccc(Cl)cc1 : ____
Response given: 6.91

Challenge: Request the reported pIC50 associated with CNCc1ccccc1Oc1ccc(F)cc1Cl
Response given: 5.19

Challenge: State the recorded pIC50 for this entry: CNCc1ccccc1Oc1ccc(OC)cc1Cl
Response given: 5.23

Challenge: Reported pIC50, compound CNCc1cc(N2CCCS2(=O)=O)ccc1Oc1ccc(Cl)cc1C : ____
Response given: 7.33

Challenge: What measured pIC50 goes with CNCc1cc(C(N)=O)ccc1Oc1ccc(Cl)cc1OC ?
Response given: 4.68

Challenge: Using the record for CN(C)Cc1ccccc1Oc1ccc(Cl)cc1F , report its pIC50.
Response given: 6.38

Challenge: Consider the compound shown here: CN(C)Cc1ccccc1Oc1ccc(F)cc1Cl What is its recorded pIC50?
Response given: 5.67

Challenge: Which measured pIC50 value corresponds to CN(C)Cc1ccccc1Oc1ccc(Cl)cc1Cl ?
Response given: 6.71

Challenge: Given the compound CNCc1cc(NS(C)(=O)=O)ccc1Oc1ccc(Cl)cc1C , what is its reported pIC50?
Response given: 6.49

Challenge: Consider the compound CNCc1cc(C(N)=O)ccc1Oc1ccc(Cl)cc1Cl and give its measured pIC50.
Response given: 5.92

Challenge: Which pIC50 is listed for CNCc1cc(C#N)ccc1Oc1ccc(Cl)cc1Cl ?
Response given: 5.52

Challenge: Suppose we examine the compound CNCc1cc(C(=O)NC)ccc1Oc1ccc(Cl)cc1Cl ; what pIC50 value has been reported?
Response given: 6.10

Challenge: Which pIC50 is reported for this compound? CNCc1ccccc1Oc1ccc(Cl)cc1OC
Response given: 4.71

Challenge: Which pIC50 value belongs to CNCc1cc(C(=O)N(C)C)ccc1Oc1ccc(Cl)cc1Cl ?
Response given: 6.56

Challenge: Which measured pIC50 value corresponds to CNCc1cc(N2CCCS2(=O)=O)ccc1Oc1ccc(Cl)cc1Cl ?
Response given: 6.86

Challenge: Quick one: pIC50 of CNCc1ccccc1Oc1ccc(Cl)cc1C ?
Response given: 6.38

Challenge: Requested read-out: pIC50. Entry: CNCc1cc(C(=O)N(C)C)ccc1Oc1ccc(Cl)cc1C
Response given: 6.76

Challenge: Return reported pIC50; argument: COc1cc(Cl)ccc1Oc1ccccc1CN(C)C
Response given: 5.42

Challenge: Can you share its pIC50? I mean this compound: CNCc1ccccc1Oc1ccc(Cl)cc1Cl
Response given: 6.30
